Values compiled from PubChem BioAssay AID248.

Quick reference for T/C among some compounds
test system: L1210 leukemia ip in BDF1 mice, survival T/C; assay: NCI In Vivo Anticancer Drug Screen. Data for tumor model L1210 Leukemia (intraperitoneal) in B6D2F1 (BDF1) mice; settings: endpoint: mean survival time; dose: 100.0 mg/kg/injection; schedule: Q01DX009 (ip); vehicle: saline; higher = longer survival
Inconclusive results and toxic doses are left out.

Past entries and their recorded results:
> print(dat)
                                   compound  endpoint              val
1  COc1ccc(CCNC(=S)NCCc2ccc(OC)c(OC)c2)cc1OC       T/C  98 % of control
2  NC(Cc1ccc(O)c(I)c1)C(=O)O (stereo unspecified)       T/C  96 % of control
3  CC(=O)Nc1ccc(/C=N\N=C\c2ccc(NC(C)=O)cc2)cc1       T/C  88 % of control
4           COc1cc(Cl)ccc1NC(=O)OCCc1ccccn1       T/C  97 % of control
5                     COCc1nnc2ncnc(OC)c2n1       T/C  88 % of control

Consider the additional compound presented here.
Task: Query T/C on L1210 leukemia ip in BDF1 mice, survival T/C for O=C1OC(c2ccc([N+](=O)[O-])cc2)Sc2ccccc21 (stereo unspecified)
Output: 98 % of control

* * *

Quick reference for T/C among some compounds
test system: L1210 leukemia ip in BDF1 mice, survival T/C; assay: NCI In Vivo Anticancer Drug Screen. Data for tumor model L1210 Leukemia (intraperitoneal) in B6D2F1 (BDF1) mice; settings: endpoint: mean survival time; dose: 200.0 mg/kg/injection; schedule: Q01DX009 (ip); vehicle: saline with Tween-80; higher = longer survival
Toxic doses and inconclusive results are not listed.

> print(dat)
                                   compound               val
1               COC(OC)c1nc(SC)[nH]c(=O)c1C   89 % of control
2        O=C(Nc1ccccc1)N(Cc1ccccc1)c1ccccc1   89 % of control
3  CCC1(c2ccccc2)NC(=O)NC1=O (stereo not given)  100 % of control

Task: Query T/C on L1210 leukemia ip in BDF1 mice, survival T/C for O=C(c1ccccc1Br)C(Br)C(Br)c1ccccc1 (stereo not given)
Output: 93 % of control

Task: Also, `COC(OC)c1cc(=O)n(C)c(=O)[nH]1` please.
Output: 93 % of control

Task: Also, `CC(C)(C)N=C1OC(=O)c2ccccc21` please.
Output: 98 % of control

Task: Also, `CC(=O)OCC(CCn1ccc(=O)[nH]c1=O)COC(C)=O` please.
Output: 95 % of control

Task: Also, `OC/C(=N/Nc1ccc2ccccc2n1)c1ccccc1` please.
Output: 93 % of control

Task: Also, `Cc1ccc(C(=O)/C=C/c2ccc(N(C)C)cc2)cc1` please.
Output: 93 % of control

Task: Also, `COc1cc(CC#N)c(OC)cc1CC#N` please.
Output: 89 % of control

Task: Also, `Cc1ccc2nc(-c3ccc(N)cc3)sc2c1` please.
Output: 91 % of control

* * *

test system: L1210 leukemia ip in BDF1 mice, survival T/C; experiment: NCI In Vivo Anticancer Drug Screen. Data for tumor model L1210 Leukemia (intraperitoneal) in B6D2F1 (BDF1) mice; details: endpoint: mean survival time; dose: 25.0 mg/kg/injection; schedule: Q01DX009 (ip); vehicle: water; higher = longer survival
Inconclusive results and toxic doses are left out.
endpoint: T/C

> print(dat)
                                   compound               val
1  NC(=O)OCc1c(O)c2c(c(O)c1COC(N)=O)C(=O)C=CC2=O   99 % of control
2  CCNC(C)(C)C(SS)c1ccc(Br)cc1 (centres undefined)   94 % of control
3               CNCCN(C)CCN(C)Cc1ccc(OC)cc1  105 % of control

Task: Fill blank: measured T/C of the compound CCN(CC)CCCC(C)NC(=O)c1ccc(N(C)C)nc1 (centres undefined) is ____.
Output: 97 % of control

* * *

test system: L1210 leukemia ip in BDF1 mice, survival T/C; experiment: NCI In Vivo Anticancer Drug Screen. Data for tumor model L1210 Leukemia (intraperitoneal) in B6D2F1 (BDF1) mice; conditions: endpoint: mean survival time; dose: 400.0 mg/kg/injection; schedule: Q01DX009 (ip); vehicle: saline; higher = longer survival
Inconclusive results and toxic doses are left out.
Quick reference for T/C among some molecules

Past entries and their recorded results:
> print(dat)
                                   molecule  endpoint              val
1  CCN(CC)C1CCC(NC(C)=O)CC1 (stereo not given)       T/C  86 % of control
2                       O=C1CCN2C=CC=CC2=N1       T/C  97 % of control

Task: Query T/C on L1210 leukemia ip in BDF1 mice, survival T/C for `O=S(=O)(C/C=C/CC(Cl)(Cl)Cl)C/C=C/CC(Cl)(Cl)Cl`
Output: 92 % of control

Task: Also, CC(=O)OCC(=O)C1CCC=CC1OC(C)=O (stereo not given) please.
Output: 98 % of control

Task: Also, `C[N+](C)(C)CCS(=O)(=O)[O-]` please.
Output: 95 % of control

Task: Also, `O/N=C(/Cc1ccccc1)CC(O)(C(F)(F)F)C(F)(F)F` please.
Output: 95 % of control

Task: Also, `CCOC(=O)/C=C/c1c[nH]c(=O)[nH]c1=O` please.
Output: 105 % of control

Task: Also, `O=C(Cn1ccc(O)cc1=O)N1CCC2(CC1)SSC1(CCN(C(=O)Cn3ccc(O)cc3=O)CC1)S2` please.
Output: 94 % of control

* * *

test system: L1210 leukemia ip in BDF1 mice, survival T/C; assay: NCI In Vivo Anticancer Drug Screen. Data for tumor model L1210 Leukemia (intraperitoneal) in B6D2F1 (BDF1) mice; conditions: endpoint: mean survival time; dose: 100.0 mg/kg/injection; schedule: Q04DX003 (ip); vehicle: water; higher = longer survival
Inconclusive results and toxic doses are left out.
endpoint: T/C

Past entries and their recorded results:
> print(dat)
                                   molecule               val
1                    COC(=O)CSc1ncc2cnccn12  119 % of control
2               CC(=O)Nc1cc(Cl)c2[nH]cnc2n1  110 % of control
3  CC(C)CCCC(C)C1CCC2C3CC=C4CC(O)CCC4(C)C3CCC12C (centres undefined) (tested in a mixture with another compound)   90 % of control

Consider the additional molecule presented here.
Task: Fill blank: measured T/C of the molecule `Cc1cc(C(=O)O)c(CN)c(=O)n1C` is ____.
Output: 102 % of control

* * *

Quick reference for T/C among some molecules
system: L1210 leukemia ip in BDF1 mice, survival T/C; assay: NCI In Vivo Anticancer Drug Screen. Data for tumor model L1210 Leukemia (intraperitoneal) in B6D2F1 (BDF1) mice; details: endpoint: mean survival time; dose: 400.0 mg/kg/injection; schedule: Q04DX002 (ip); vehicle: Klucel (hydroxypropylcellulose) (HPC); higher = longer survival
Toxic doses and inconclusive results are not listed.

Past entries and their recorded results:
> print(dat)
                                   molecule               val
1     CCc1cc2oc(C)c(C)c2c(N=Nc2ccccc2OC)c1O  102 % of control
2                     CN(C)C(=S)SC(=S)N(C)C   98 % of control
3  Cc1ccc([N+](=O)[O-])cc1NC(=O)Nc1ccc(Nc2ccccc2)cc1   97 % of control
4  CN(CCNC(=O)NCCCCCCNC(=O)NCCN(C)c1ccccc1)c1ccccc1  108 % of control
5  CC(C)=CCC/C(C)=C/COC(=O)C(CC=C(C)C)CCN1CCN(CC=C(C)C)CC1 (centres undefined)   98 % of control

Task: Query T/C on L1210 leukemia ip in BDF1 mice, survival T/C for `O=C(Oc1c(-c2ccccc2)[nH]c2ccccc12)c1ccc([N+](=O)[O-])cc1`
Output: 90 % of control

* * *

Quick reference for T/C among some molecules
Tested on: L1210 leukemia ip in BDF1 mice, survival T/C
Test: NCI In Vivo Anticancer Drug Screen. Data for tumor model L1210 Leukemia (intraperitoneal) in B6D2F1 (BDF1) mice
Details: endpoint: mean survival time; dose: 200.0 mg/kg/injection; schedule: Q01DX009 (ip); vehicle: Klucel (hydroxypropylcellulose) (HPC); higher = longer survival
Description: The antitumor activity of compounds was measured in mice bearing transplantable tumors. Survival or tumor size were measured and the results are expressed as the measurement made in the treated group (T) divided by the measurement made in the vehicle treated control group (C). The tumor model used in this assay is L1210 Leukemia (intraperitoneal) in B6D2F1 (BDF1) mice
Toxic doses and inconclusive results are not listed.

> print(dat)
                                   molecule  endpoint              val
1  Cc1ccc([N+](=O)[O-])cc1NC(=O)Nc1ccc([N+](=O)[O-])cc1       T/C  90 % of control
2  C/C(C(=O)O)=C(/Br)c1ccc([N+](=O)[O-])cc1       T/C  95 % of control
3           OCC1(c2ccccc2)CCN(Cc2ccccc2)CC1       T/C  96 % of control
4      Cc1cccc(Cl)c1NC(=O)Nc1cccc(C(=O)O)c1       T/C  86 % of control
5                          CSc1ccccc1C(=O)O       T/C  95 % of control

Task: Fill blank: measured T/C of the molecule CC1CCC(C(C)C)C(N(C)Cc2cc(Br)cc(Br)c2O)C1 (stereo not given) is ____.
Output: 105 % of control

Task: Also, `Cc1ccc(Cl)c(NC(=O)COc2ccc(Cl)cc2)c1` please.
Output: 94 % of control

Task: Also, `O=C1OCC/C1=C/CCCC/C=C1\CCOC1=O` please.
Output: 98 % of control

Task: Also, `CC1(C)NC(=O)N(Cc2ccccc2)C1=O` please.
Output: 97 % of control

Task: Also, `Cc1ccc(S(=O)(=O)N/N=C\c2cccc([N+](=O)[O-])c2)cc1` please.
Output: 98 % of control
